- System: P. falciparum stage V gametocytes
- Set-up: BacTiter-Glo ATP luminescence viability of purified stage V gametocytes in 384-well plates, per cent inhibition versus DMSO
- PARTICULARS: 48 h, 5 µM; inhibitor
In all, about 13,000 compounds went through this assay and about 3,200 (25%) showed an effect of 50% or more. The list shows a part of the results.
ENDPOINT: % Inhibition (%)

- Cn1cc(C(=O)Nc2cccc(-c3cccc(-c4nc5ccc(F)cc5[nH]4)c3)c2)n(C)c1=O: -0.01557
- O=C(/C=C/c1ccc(Cl)c(Cl)c1)NCCCCCN1CCCC(C(=O)Nc2cccc(Cl)c2)C1 (stereo not shown): -10.14
- O=C(Nc1cc(Cl)ccc1-n1cncn1)C1(c2ccccc2)CC1: 2.448
- O=C(/C=C/c1ccc(Cl)cc1)NCCCCCN1CCCC(C(=O)Nc2ccc(Cl)cc2)C1 (stereo not shown): 4.842
- CCOc1ccc(NC(=O)c2ccc(CN3CCCN(Cc4cccc(O)c4)CC3)cc2)cc1: 8.028
- CC(Cl)=CCc1c(C)[nH]c2c(ccc3ccccc32)c1=O: 30.93
- O=C(/C=C/c1ccc(Cl)c(Cl)c1)NCCCCCN1CCCC(C(=O)Nc2ccc(F)c(Cl)c2)C1 (stereo not shown): -6.866
- O=C(/C=C/c1ccc(Cl)c(Cl)c1)NCCCCCN1CCCN(C(=O)Nc2cc(F)cc(F)c2)CC1: -53.24
- O=C(CCCCCNC(=O)c1ccc(O)c(-c2ccc(Cl)c(Cl)c2)c1)NCCN1CCCC1: -20.01
- O=C(NC1CCC(CN2CCC(c3c[nH]c4ccccc34)CC2)CC1)c1cc(-c2ccccc2Cl)n(-c2cccc(Cl)c2)n1 (stereo not shown): -13.83
- O=C(/C=C/C=C/c1ccc(Cl)c(Cl)c1)NCCCCCN1CCCC2CCCCC21 (stereo not shown): 92.39
- COc1ccc(-c2cccc(NC(=O)c3ccc(Cl)cc3)c2)cc1CN1CCNCC1: 95.75
- O=C(NC1CCC(CN2CCC(c3c[nH]c4ccccc34)CC2)CC1)c1cc(-c2cccc(Cl)c2)n(-c2ccc(Cl)cc2Cl)n1 (stereo not shown): -7.21
- N#CC(NC(=O)C=Cc1ccccc1)c1ccccc1 (stereo not shown): -0.4742
- Cc1c(C(=O)NC2CCC(CN3CCC(c4c[nH]c5ccccc45)CC3)CC2)cnn1-c1c(Cl)cc(Cl)cc1Cl (stereo not shown): 8.343
- N#Cc1ccccc1Sc1ccccc1C(=O)Nc1ccc2ccccc2n1: 33.3
